TARGET_UNDER_TEST: EGFR with insertion SVD between D770 and N771 (mutEGFR D770_N771insSVD) (Homo sapiens, UniProt P00533, DUP768-770)
Construct: amino acids R669 to A1210; made in house; host or cells: Sf9 insect cells (baculovirus)
Sequence (P00533 other isoform, or with tags, fused parts or gaps DUP768-770): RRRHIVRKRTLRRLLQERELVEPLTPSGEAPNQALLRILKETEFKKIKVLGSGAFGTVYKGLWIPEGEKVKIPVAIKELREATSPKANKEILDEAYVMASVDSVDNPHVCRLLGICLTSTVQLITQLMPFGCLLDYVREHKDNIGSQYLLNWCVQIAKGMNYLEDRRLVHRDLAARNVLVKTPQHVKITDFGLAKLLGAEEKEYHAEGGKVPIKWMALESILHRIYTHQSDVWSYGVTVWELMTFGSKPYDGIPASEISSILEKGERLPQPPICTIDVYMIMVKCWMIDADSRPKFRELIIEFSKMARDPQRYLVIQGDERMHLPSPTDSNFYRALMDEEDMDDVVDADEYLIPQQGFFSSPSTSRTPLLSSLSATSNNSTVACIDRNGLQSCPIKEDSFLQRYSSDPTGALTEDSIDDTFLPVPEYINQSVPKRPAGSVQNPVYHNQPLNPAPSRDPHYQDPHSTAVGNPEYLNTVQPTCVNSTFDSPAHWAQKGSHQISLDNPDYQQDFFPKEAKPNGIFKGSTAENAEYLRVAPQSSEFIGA
PROCEDURE_DETAILS: Exon20-Mutant-EGFR(D770_N771insSVD) kinase assay (TR-FRET)
Format: biochemical
MEASUREMENT_CONDITIONS: 2 mM ATP, Table 2
// values below are reported mutEGFR (D770_N771insSVD) kinase assay IC50
I only need the number, in pM, no unit after it.

The examples below pair each entry with its known result.
- COc1c(Cl)cccc1Nc1c(-c2ccncc2OC[C@@H]2CCO2)[nH]c2c1C(=O)N[C@H](C)C2: 217
- COc1c(Cl)cccc1Nc1c(-c2ccncc2OCC(C)(C)OC)[nH]c2c1C(=O)N[C@@H](C)C2: 235
- COc1c(Cl)cccc1Nc1c(-c2ccncc2OC[C@@H]2COCCN2C)[nH]c2c1C(=O)NCC2CCF (single isomer, unassigned) [Example 89]: 278

Item COc1c(Cl)cccc1Nc1c(-c2ccncc2OCC2OCCCC2(F)F)[nH]c2c1C(=O)N[C@H](C)C2 (single isomer, unassigned) [Example 76] has what recorded mutEGFR (D770_N771insSVD) kinase assay IC50? 240

Requested read-out: mutEGFR (D770_N771insSVD) kinase assay IC50. Entry: COc1c(Cl)cccc1Nc1c(-c2ccncc2OCCC(C)OC)[nH]c2c1C(=O)N[C@H](C)C2 (mixture of isomers) [Example 120] 90.1

mutEGFR (D770_N771insSVD) kinase assay IC50 lookup needed for COc1c(Cl)cccc1Nc1c(-c2ccncc2OC[C@@H]2CCCO2)[nH]c2c1C(=O)N[C@H](C)C2 (single isomer, unassigned) , thanks. 125
